Attribute: kon
Molecular target: T1, recombinant human IL6R-his (human, UniProt P08887 20-365)
T1 construct: In house made; the entry includes the C-terminal His tag; also called human IL6R-his protein
T1 sequence: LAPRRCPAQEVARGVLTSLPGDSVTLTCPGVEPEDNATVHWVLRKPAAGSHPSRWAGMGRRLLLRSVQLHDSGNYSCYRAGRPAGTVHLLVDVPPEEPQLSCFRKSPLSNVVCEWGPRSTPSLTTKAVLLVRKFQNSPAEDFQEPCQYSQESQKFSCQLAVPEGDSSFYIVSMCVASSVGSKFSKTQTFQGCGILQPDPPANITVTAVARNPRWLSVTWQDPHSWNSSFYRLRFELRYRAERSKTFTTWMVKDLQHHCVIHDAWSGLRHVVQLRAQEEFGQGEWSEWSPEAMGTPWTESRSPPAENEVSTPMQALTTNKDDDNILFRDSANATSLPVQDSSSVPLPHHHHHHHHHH
Assay: SPR Biacore; antibody from diluted cell supernatant captured by anti-human IgG on CM5, human IL6R in flow
Number in M⁻¹ s⁻¹, nothing else.

Solved cases below.
- Binder: "humanized antibody hu1H7-V9 (antibody, human IgG1, kappa, V domains shown, Human IgG1 / kappa) VH: QVQLVQSGAEVKKPGASVKVSCKASGYTFTNYWMHWVRQAPGQGLEWIGEINPTNGRTNYNENFKSKVTMTVDTSTSTVYMELSSLRSEDTAVYYCARLNTHYVFDSWGQGTLVTVSS VL: EIVLTQSPGTLSLSPGERATLSCSVSSSISSNYLHWYQQKPGLSPRLLISRTSTLASGIPARFSGSGSGTEFTLTISRLQSEDFAVYYCQQGSGIPFTFGQGTKLEIKR"
  Observed Property: "kon"
  Measurement Units: "M⁻¹ s⁻¹"
  Value Measured: 212000
- Binder: "humanized antibody hu1H7-V8 (antibody, human IgG1, kappa, V domains shown, Human IgG1 / kappa) VH: QVQLVQSGAEVKKPGASVKVSCKASGYTFTNYWMHWVRQAPGQGLEWIGEINPTNGRTNYNENFKSKVTLTRDTSTSTVYMELSSLRSEDTAVYYCARLNTHYVFDSWGQGTLVTVSS VL: EIVLTQSPGTLSLSPGERATLSCSVSSSISSNYLHWYQQKPGLSPRLLISRTSTLASGIPARFSGSGSGTEFTLTISRLQSEDFAVYYCQQGSGIPFTFGQGTKLEIKR"
  Observed Property: "kon"
  Measurement Units: "M⁻¹ s⁻¹"
  Value Measured: 218000
- Binder: "humanized antibody hu1H7-V7 (antibody, human IgG1, kappa, V domains shown, Human IgG1 / kappa) VH: QVQLVQSGAEVKKPGASVKVSCKASGYTFTNYWMHWVRQAPGQGLEWIGEINPTNGRTNYNENFKSKVTLTVDKSTSTAYMELSSLRSEDTAVYYCARLNTHYVFDSWGQGTLVTVSS VL: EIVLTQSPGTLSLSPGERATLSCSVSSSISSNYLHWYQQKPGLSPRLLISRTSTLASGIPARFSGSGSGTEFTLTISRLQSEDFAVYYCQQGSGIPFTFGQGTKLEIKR"
  Observed Property: "kon"
  Measurement Units: "M⁻¹ s⁻¹"
  Value Measured: 233000
- Binder: "humanized antibody hu1H7-V6 (antibody, human IgG1, kappa, V domains shown, Human IgG1 / kappa) VH: QVQLVQSGAEVKKPGASVKVSCKASGYTFTNYWMHWVRQAPGQGLEWIGEINPTNGRTNYNENFKSKVTLTVDTSTSTVYMELSSLRSEDTAVYYCARLNTHYVFDSWGQGTLVTVSS VL: EIVLTQSPGTLSLSPGERATLSCSVSSSISSNYLHWYQQKPGLSPRLLISRTSTLASGIPARFSGSGSGTEYTLTISRMQSEDFAVYYCQQGSGIPFTFGQGTKLEIKR"
  Observed Property: "kon"
  Measurement Units: "M⁻¹ s⁻¹"
  Value Measured: 334000
- Binder: "humanized antibody hu1H7-V2 (antibody, human IgG1, kappa, V domains shown, Human IgG1 / kappa) VH: QVQLVQSGAEVKKPGASVKVSCKASGYTFTNYWMHWVRQAPGQGLEWIGEINPTNGRTNYNENFKSKVTLTRDTSTSTVYMELSSLRSEDTAVYYCARLNTHYVFDSWGQGTLVTVSS VL: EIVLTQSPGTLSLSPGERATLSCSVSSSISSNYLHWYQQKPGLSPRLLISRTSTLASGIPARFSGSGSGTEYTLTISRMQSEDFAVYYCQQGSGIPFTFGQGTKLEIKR"
  Observed Property: "kon"
  Measurement Units: "M⁻¹ s⁻¹"
  Value Measured: 269000

### Prompt Give recorded kon. humanized antibody hu1H7-V1 (antibody, human IgG1, kappa, V domains shown, Human IgG1 / kappa; also called hu1H7-Vl) VH: QVQLVQSGAEVKKPGASVKVSCKASGYTFTNYWMHWVRQAPGQGLEWIGEINPTNGRTNYNENFKSKVTLTVDKSTSTAYMELSSLRSEDTAVYYCARLNTHYVFDSWGQGTLVTVSS VL: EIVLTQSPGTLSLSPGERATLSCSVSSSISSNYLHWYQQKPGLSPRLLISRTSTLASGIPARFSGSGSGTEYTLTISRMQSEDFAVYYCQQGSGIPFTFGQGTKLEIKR
### Response 258000

### Prompt Give recorded kon. humanized antibody hu1H7-V1-2 (antibody, human IgG1, kappa, V domains shown, Human IgG1 / kappa; also called hu1H7-Vl-2) VH: QVQLVQSGAEVKKPGASVKVSCKASGYTFTNYWMHWVKQAPGQGLDWIGEINPTNGRTNYNENFKSKATLTVDKSTSTAYMELSSLRSEDTAVYYCARLNTHYVFDSWGQGTLVTVSS VL: EIVLTQSPGTLSLSPGERATLTCSVSSSISSNYLHWYQQKPGFSPRLLISRTSTLASGIPARFSGSGSGTSYSLTISRMQSEDFAVYYCQQGSGIPFTFGQGTKLEIKR
### Response 262000
